Please go through the items and note down their pIC50.
System: A549 cells
procedureDetails: MTT cytotoxicity in A549 cells
Type: cell-based
conditionsUsed: Homo sapiens, A549, hypoxia 24 h then normoxia 72 h, read-out: IC50 A549 Hypoxia
Worth noting: pIC50 values are minus log10 of concentrations stated in mol/L.

Quick check: pIC50 of C[C@H]1[C@@H](OCCc2cn(Cc3cc4cc(Cl)cc(Cl)c4oc3=O)nn2)O[C@@H]2O[C@@]3(C)CC[C@H]4[C@H](C)CC[C@@H]1[C@@]24OO3 [2d] ?
4.16

Further, for C[C@H]1[C@@H](OCc2cn(Cc3cc(=O)oc4cc(O)ccc34)nn2)O[C@@H]2O[C@@]3(C)CC[C@H]4[C@H](C)CC[C@@H]1[C@@]24OO3 [3f] ?
4.01

Further, for C[C@H]1[C@@H](OCCc2cn(Cc3cc4cc(Cl)ccc4oc3=O)nn2)O[C@@H]2O[C@@]3(C)CC[C@H]4[C@H](C)CC[C@@H]1[C@@]24OO3 [2c] ?
4.17

Further, for Cc1cc(C)c2c(OCc3cn(CCCO[C@H]4O[C@@H]5O[C@@]6(C)CC[C@H]7[C@H](C)CC[C@@H]([C@H]4C)[C@@]57OO6)nn3)cc(=O)oc2c1 [6l] ?
5.01

Further, for Cc1cccc2c(OCc3cn(CCO[C@H]4O[C@@H]5O[C@@]6(C)CC[C@H]7[C@H](C)CC[C@@H]([C@H]4C)[C@@]57OO6)nn3)cc(=O)oc12 [5o] ?
4.35

Further, for Cc1cc(C)c2oc(=O)cc(OCc3cn(CCO[C@H]4O[C@@H]5O[C@@]6(C)CC[C@H]7[C@H](C)CC[C@@H]([C@H]4C)[C@@]57OO6)nn3)c2c1 [5m] ?
5.89

Further, for C[C@H]1[C@@H](OCCc2cn(Cc3cc4cc(Br)ccc4oc3=O)nn2)O[C@@H]2O[C@@]3(C)CC[C@H]4[C@H](C)CC[C@@H]1[C@@]24OO3 [2b] ?
4.22

* * *

System: MDA-MB-231 cells
procedureDetails: MTT cytotoxicity in MDA-MB-231 cells
Format: cell-based
conditionsUsed: Homo sapiens, MDA-MB-231, normoxia 96 h, read-out: IC50 MDA-MB-231 Normoxia
Please go through the items and note down their IC50.

Quick check: IC50 of C[C@H]1[C@@H](OCCc2cn(Cc3cc4cc(Br)cc(Br)c4oc3=O)nn2)O[C@@H]2O[C@@]3(C)CC[C@H]4[C@H](C)CC[C@@H]1[C@@]24OO3 ?
> 100 µM

Further, for C[C@H]1[C@@H](OCc2cn(Cc3cc4cc(Cl)cc(Cl)c4oc3=O)nn2)O[C@@H]2O[C@@]3(C)CC[C@H]4[C@H](C)CC[C@@H]1[C@@]24OO3 ?
68.9 µM

Further, for C[C@H]1[C@@H](OCCc2cn(Cc3cc4cc(Cl)cc(Cl)c4oc3=O)nn2)O[C@@H]2O[C@@]3(C)CC[C@H]4[C@H](C)CC[C@@H]1[C@@]24OO3 ?
88.5 µM

Further, for COc1cccc2c1C(=O)c1c(O)c3c(c(O)c1C2=O)C[C@@](O)(C(=O)CO)C[C@@H]3O[C@H]1C[C@H](N)[C@H](O)[C@H](C)O1 [DOX, Doxorubicin, reference compound] ?
1.37 µM

Further, for Cc1ccc2oc(=O)cc(Cn3cc(CCO[C@H]4O[C@@H]5O[C@@]6(C)CC[C@H]7[C@H](C)CC[C@@H]([C@H]4C)[C@@]57OO6)nn3)c2c1 ?
> 100 µM

* * *

measureName: melting point

Quick check: melting point of C[C@H]1[C@@H](OCc2cn(Cc3cc4cc(Br)cc(Br)c4oc3=O)nn2)O[C@@H]2O[C@@]3(C)CC[C@H]4[C@H](C)CC[C@@H]1[C@@]24OO3 ?
103 to 105 °C

Further, for C[C@H]1[C@@H](OCc2cn(Cc3cc4ccccc4oc3=O)nn2)O[C@@H]2O[C@@]3(C)CC[C@H]4[C@H](C)CC[C@@H]1[C@@]24OO3 ?
73 to 75 °C

Further, for C[C@H]1[C@@H](OCc2cn(Cc3cc4cc(Br)ccc4oc3=O)nn2)O[C@@H]2O[C@@]3(C)CC[C@H]4[C@H](C)CC[C@@H]1[C@@]24OO3 ?
78 to 80 °C

Further, for C[C@H]1[C@@H](OCCc2cn(Cc3cc4cc(Br)ccc4oc3=O)nn2)O[C@@H]2O[C@@]3(C)CC[C@H]4[C@H](C)CC[C@@H]1[C@@]24OO3 ?
138 to 140 °C

Further, for C[C@H]1[C@@H](OCc2cn(Cc3cc4cc(Cl)cc(Cl)c4oc3=O)nn2)O[C@@H]2O[C@@]3(C)CC[C@H]4[C@H](C)CC[C@@H]1[C@@]24OO3 ?
113 to 115 °C

Further, for Cc1ccc2c(OCc3cn(CCCO[C@H]4O[C@@H]5O[C@@]6(C)CC[C@H]7[C@H](C)CC[C@@H]([C@H]4C)[C@@]57OO6)nn3)cc(=O)oc2c1 ?
80 to 82 °C

* * *

Please go through the items and note down their pIC50.
Test system: HCT-116 cells
procedureDetails: MTT cytotoxicity in HCT-116 cells
Format: cell-based
conditionsUsed: Homo sapiens, HCT-116, hypoxia 24 h then normoxia 72 h, read-out: IC50 HCT-116 Hypoxia
Worth noting: pIC50 values are minus log10 of concentrations stated in mol/L.

Give HCT-116 cells pIC50 for C[C@H]1[C@@H](O)O[C@@H]2O[C@@]3(C)CC[C@H]4[C@H](C)CC[C@@H]1[C@@]24OO3 [DHA, Dihydroartemisinin]
4.59

Further, for Cc1ccc2c(OCc3cn(CCO[C@H]4O[C@@H]5O[C@@]6(C)CC[C@H]7[C@H](C)CC[C@@H]([C@H]4C)[C@@]57OO6)nn3)cc(=O)oc2c1C ?
4.48

Further, for C[C@H]1[C@@H](OCc2cn(Cc3cc(=O)oc4cc(O)ccc34)nn2)O[C@@H]2O[C@@]3(C)CC[C@H]4[C@H](C)CC[C@@H]1[C@@]24OO3 ?
4.17

Further, for C[C@H]1[C@@H](OCc2cn(Cc3cc4cc(Cl)ccc4oc3=O)nn2)O[C@@H]2O[C@@]3(C)CC[C@H]4[C@H](C)CC[C@@H]1[C@@]24OO3 ?
4.39

Further, for C[C@H]1[C@@H](OCCCn2cc(COc3cc(=O)oc4ccccc34)nn2)O[C@@H]2O[C@@]3(C)CC[C@H]4[C@H](C)CC[C@@H]1[C@@]24OO3 ?
4.48

Further, for Cc1cc(C)c2c(OCc3cn(CCCO[C@H]4O[C@@H]5O[C@@]6(C)CC[C@H]7[C@H](C)CC[C@@H]([C@H]4C)[C@@]57OO6)nn3)cc(=O)oc2c1 ?
4.55

* * *

Please go through the items and note down their melting point.

Quick check: melting point of C[C@H]1[C@@H](OCCc2cn(Cc3cc4cc(Cl)cc(Cl)c4oc3=O)nn2)O[C@@H]2O[C@@]3(C)CC[C@H]4[C@H](C)CC[C@@H]1[C@@]24OO3 ?
101 to 103 °C

Further, for Cc1cc(C)c2oc(=O)cc(OCc3cn(CCO[C@H]4O[C@@H]5O[C@@]6(C)CC[C@H]7[C@H](C)CC[C@@H]([C@H]4C)[C@@]57OO6)nn3)c2c1 ?
111 to 113 °C

Further, for C[C@H]1[C@@H](OCCc2cn(Cc3cc4ccccc4oc3=O)nn2)O[C@@H]2O[C@@]3(C)CC[C@H]4[C@H](C)CC[C@@H]1[C@@]24OO3 ?
143 to 145 °C

Further, for C[C@H]1[C@@H](OCCc2cn(Cc3cc4cc(Cl)ccc4oc3=O)nn2)O[C@@H]2O[C@@]3(C)CC[C@H]4[C@H](C)CC[C@@H]1[C@@]24OO3 ?
138 to 140 °C

Further, for Cc1ccc2c(OCc3cn(CCCO[C@H]4O[C@@H]5O[C@@]6(C)CC[C@H]7[C@H](C)CC[C@@H]([C@H]4C)[C@@]57OO6)nn3)cc(=O)oc2c1C ?
115 to 117 °C

Further, for Cc1cc(C)c2oc(=O)cc(OCc3cn(CCCO[C@H]4O[C@@H]5O[C@@]6(C)CC[C@H]7[C@H](C)CC[C@@H]([C@H]4C)[C@@]57OO6)nn3)c2c1 ?
90 to 92 °C

* * *

System: NO release of LPS-induced microglial N9 cells
procedureDetails: Inhibition of NO release in LPS-induced N9 cells (Griess)
Type: cell-based, murine
conditionsUsed: Mus musculus, 1 μg/mL LPS for 48 h, NO level in medium
pIC50: −log10 of the molar value.
The label depends only on pIC50: label 1 if it is at least 6, label 0 if it is smaller.

Answer whether pIC50 of C[C@H]1[C@@H](OCCc2cn(Cc3cc4cc(Cl)ccc4oc3=O)nn2)O[C@@H]2O[C@@]3(C)CC[C@H]4[C@H](C)CC[C@@H]1[C@@]24OO3 [2c] is greater than or equal to 6.
label 0

Further, for C[C@H]1[C@@H](OCCc2cn(Cc3cc4cc(Br)ccc4oc3=O)nn2)O[C@@H]2O[C@@]3(C)CC[C@H]4[C@H](C)CC[C@@H]1[C@@]24OO3 [2b] ?
label 1

Further, for C[C@H]1[C@@H](OCc2cn(Cc3cc(=O)oc4cc(O)ccc34)nn2)O[C@@H]2O[C@@]3(C)CC[C@H]4[C@H](C)CC[C@@H]1[C@@]24OO3 [3f] ?
label 1

Further, for C[C@H]1[C@@H](OCCCn2cc(COc3cc(=O)oc4ccccc34)nn2)O[C@@H]2O[C@@]3(C)CC[C@H]4[C@H](C)CC[C@@H]1[C@@]24OO3 [6j] ?
label 1
